target: recombinant GST-FXR fusion protein (Homo sapiens); experiment: FXR activity at the molecular level (AlphaScreen)
pEC50: −log10 of the molar value.
Each entry below carries its reported pEC50.

# COMPOUND, TGT, pEC50
data = [
    ("O=c1[nH]c(-c2ccc(N3CCC(OCc4c(-c5ccccc5C(F)(F)F)noc4C4CC4)CC3)cn2)no1", "recombinant GST-FXR fusion protein (Homo sapiens)", 6.41),
    ("O=c1[nH]c(-c2cccc(N3CCCC(OCc4c(-c5c(Cl)cccc5Cl)noc4C4CC4)CC3)c2)no1 (stereo not shown)", "recombinant GST-FXR fusion protein (Homo sapiens)", 5.74),
    ("O=c1[nH]c(-c2ccc(N3CCC(OCc4c(-c5c(Cl)cccc5Cl)noc4C4CC4)CC3)nc2)no1", "recombinant GST-FXR fusion protein (Homo sapiens)", 6.75),
    ("O=c1[nH]c(-c2ccc(N3CCC(OCc4c(-c5ccccc5OC(F)(F)F)noc4C4CC4)CC3)cc2F)no1", "recombinant GST-FXR fusion protein (Homo sapiens)", 6.97),
    ("Cn1cc(-c2noc(=O)[nH]2)c2cc(N3CCC(OCc4c(-c5c(Cl)cccc5Cl)noc4C4CC4)CC3)ccc21", "recombinant GST-FXR fusion protein (Homo sapiens)", 5.50),
    ("O=c1[nH]c(-c2cccc(N3CCC(OCc4c(-c5c(Cl)cccc5Cl)noc4C4CC4)C3)c2)no1 (stereo not shown)", "recombinant GST-FXR fusion protein (Homo sapiens)", 5.33),
    ("O=c1[nH]c(-c2ccc(N3C4CCC3CC(OCc3c(-c5c(F)cccc5F)noc3C3CC3)C4)cc2F)no1 (stereo not shown)", "recombinant GST-FXR fusion protein (Homo sapiens)", 7.73),
]

====

biological target: recombinant GST-FXR fusion protein (Homo sapiens); assay: FXR activity at the molecular level (AlphaScreen)
pEC50: −log10 of the molar value.

# COMPOUND, pEC50
rows = [
    ("Cc1cc(-c2noc(=O)[nH]2)ccc1N1CCC(OCc2c(-c3c(Cl)cccc3Cl)noc2C2CC2)CC1", 5.58),
    ("O=c1[nH]c(-c2ccc(N3CCC(OCc4c(-c5ccccc5C(F)(F)F)noc4C4CC4)CC3)cc2)no1", 6.98),
    ("O=c1[nH]c(-c2ccc(N3C4CCC3CC(OCc3c(-c5c(Cl)cccc5Cl)noc3C3CC3)C4)cc2)no1 (stereo not shown)", 8.17),
    ("O=c1[nH]c(-c2ccc(N3CCC(OCc4c(-c5ccccc5C(F)(F)F)noc4C4CC4)CC3)c(F)c2)no1", 6.41),
]

====

target: FXR receptor (Homo sapiens, UniProt Q96RI1); construct: expressed in transfected cells; host or cells: 293T cells; experiment: FXR activity at the cell level (FXRE luciferase reporter in 293T cells); assay type: cell-based
Sequence (Q96RI1 whole entry): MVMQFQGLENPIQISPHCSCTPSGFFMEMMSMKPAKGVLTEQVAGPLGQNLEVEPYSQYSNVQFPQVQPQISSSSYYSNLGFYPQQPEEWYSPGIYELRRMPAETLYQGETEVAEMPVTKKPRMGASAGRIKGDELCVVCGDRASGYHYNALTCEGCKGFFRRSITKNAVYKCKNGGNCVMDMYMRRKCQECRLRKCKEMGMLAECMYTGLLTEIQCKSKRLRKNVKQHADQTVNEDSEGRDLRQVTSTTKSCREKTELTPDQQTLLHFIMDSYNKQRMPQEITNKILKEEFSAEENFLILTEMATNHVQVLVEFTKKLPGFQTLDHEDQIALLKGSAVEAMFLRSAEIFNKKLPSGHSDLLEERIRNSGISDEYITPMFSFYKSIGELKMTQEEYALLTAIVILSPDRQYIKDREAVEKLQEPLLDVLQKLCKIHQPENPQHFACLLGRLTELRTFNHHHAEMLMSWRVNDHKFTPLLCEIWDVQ
pEC50: −log10 of the molar value.

# COMPOUND, pEC50
data = [
    ("O=c1[nH]c(-c2ccc(N3C4CCC3CC(OCc3c(-c5c(Cl)cccc5Cl)noc3C3CC3)C4)cc2F)no1 (stereo not shown)", 10.50),
]

====

molecular target: FXR receptor (Homo sapiens); construct: expressed in transfected cells; host or cells: 293T cells; assay: FXR activity at the cell level (FXRE luciferase reporter in 293T cells); assay type: cell-based; conditions: 293T cells, FXRE luciferase reporter; read-out: EC50 (cell level)
# label = MET if EC50 < 0.7 nM else NOT MET

# STRUCTURE_STRING, GROUP
rows = [
    ("Cc1onc(-c2c(Cl)cccc2Cl)c1COC1CCN(c2ccc(-c3noc(=O)[nH]3)cc2)CC1", "MET"),
    ("O=c1[nH]c(-c2ccc(N3CCC(OCc4c(-c5c(Cl)cccc5Cl)noc4C4CC4)CC3)c(F)c2)no1", "NOT MET"),
    ("O=c1[nH]c(-c2ccc(N3CCC(OCc4c(-c5ccccc5C(F)(F)F)noc4C4CC4)CC3)c(F)c2)no1", "NOT MET"),
    ("O=c1[nH]c(-c2ccc(N3CCC(OCc4c(-c5c(Cl)cccc5Cl)noc4C4CC4)CC3)cc2F)no1", "MET"),
    ("O=c1[nH]c(-c2ccc(N3CCC(OCc4c(-c5ccccc5OC(F)(F)F)noc4C4CC4)CC3)cn2)no1", "MET"),
]

====

molecular target: FXR receptor (Homo sapiens); construct: expressed in transfected cells; host or cells: 293T cells; experiment: FXR activity at the cell level (FXRE luciferase reporter in 293T cells); assay type: cell-based; details: 10 μM, 293T cells, luciferase reporter, relative to OCA
Measured Activity relative to OCA (%) 10 μM accompanies every entry in the list below.
ATTRIBUTE_MEASURED: Activity relative to OCA (%) 10 μM

# COMPOUND, UNIT_NAME, READOUT_VALUE
rows = [
    ("O=c1[nH]c(-c2cccc(N3CCC(OCc4c(-c5c(Cl)cccc5Cl)noc4C4CC4)CC3)c2)no1 [Example 1]", "%", 109),
    ("O=c1[nH]c(-c2ccc(N3CCC(OCc4c(-c5c(Cl)cccc5Cl)noc4C4CC4)C3)cc2)no1 (stereo not shown) [Example 6]", "%", 99),
    ("O=c1[nH]c(-c2c(F)cc(N3CCC(OCc4c(-c5ccccc5C(F)(F)F)noc4C4CC4)CC3)cc2F)no1 [Example 25]", "%", 103),
    ("O=c1[nH]c(-c2ccc(N3C4CCC3CC(OCc3c(-c5ccccc5C(F)(F)F)noc3C3CC3)C4)cc2F)no1 (stereo not shown) [Example 37]", "%", 102),
    ("Cc1onc(-c2c(Cl)cccc2Cl)c1COC1CCN(c2ccc(-c3noc(=O)[nH]3)cc2)CC1 [Example 10]", "%", 202),
    ("O=c1[nH]c(-c2ccc(N3CCC(OCc4c(-c5c(Cl)cccc5Cl)noc4C4CC4)CC3)cc2F)no1 [Example 16]", "%", 168),
    ("O=c1[nH]c(-c2ccc(N3CCC(OCc4c(-c5ccccc5C(F)(F)F)noc4C4CC4)CC3)cc2F)no1 [Example 24]", "%", 105),
]

====

biological target: recombinant GST-FXR fusion protein (Homo sapiens, UniProt Q96RI1); assay: FXR activity at the molecular level (AlphaScreen)
Sequence (Q96RI1 whole entry, the tested form may be a part): as the sequence (Q96RI1 whole entry) above
pEC50: −log10 of the molar value.
Please mark 1.0 if the recorded pEC50 is equal to or greater than 7, and 0.0 if it falls below.

# MOLECULE, TGT, GROUP
records = [
    ("O=c1[nH]c(-c2ccc(N3CCC(OCc4c(-c5c(Cl)cccc5Cl)noc4C4CC4)CC3)c(F)c2)no1 [Example 18]", "recombinant GST-FXR fusion protein (Homo sapiens, UniProt Q96RI1)", 0.0),
    ("O=c1[nH]c(-c2ccc(N3CCC(OCc4c(-c5c(Cl)cccc5Cl)noc4-c4ccccc4)CC3)cc2)no1 [Example 12]", "recombinant GST-FXR fusion protein (Homo sapiens, UniProt Q96RI1)", 0.0),
    ("S=c1[nH]c(-c2ccc(N3CCC(OCc4c(-c5c(Cl)cccc5Cl)noc4C4CC4)CC3)cc2)no1 [Example 20]", "recombinant GST-FXR fusion protein (Homo sapiens, UniProt Q96RI1)", 0.0),
    ("O=c1[nH]c(-c2ccc(N3CCCC(OCc4c(-c5c(Cl)cccc5Cl)noc4C4CC4)CC3)cc2)no1 (stereo not drawn) [Example 4]", "recombinant GST-FXR fusion protein (Homo sapiens, UniProt Q96RI1)", 1.0),
    ("O=c1[nH]c(-c2ccc(N3CCC(OCc4c(-c5ccccc5OC(F)(F)F)noc4C4CC4)CC3)cc2)no1 [Example 9]", "recombinant GST-FXR fusion protein (Homo sapiens, UniProt Q96RI1)", 1.0),
    ("O=c1[nH]c(-c2ccc(N3C4CCC3CC(OCc3c(-c5ccccc5OC(F)(F)F)noc3C3CC3)C4)nc2)no1 (stereo not drawn) [Example 34]", "recombinant GST-FXR fusion protein (Homo sapiens, UniProt Q96RI1)", 1.0),
    ("O=c1[nH]c(-c2ccc(N3C4CCC3CC(OCc3c(-c5c(Cl)cccc5Cl)noc3C3CC3)C4)nc2)no1 (stereo not drawn) [Example 32]", "recombinant GST-FXR fusion protein (Homo sapiens, UniProt Q96RI1)", 1.0),
    ("Cc1onc(-c2c(Cl)cccc2Cl)c1COC1CCN(c2ccc(-c3noc(=O)[nH]3)cc2)CC1 [Example 10]", "recombinant GST-FXR fusion protein (Homo sapiens, UniProt Q96RI1)", 0.0),
    ("O=c1[nH]c(-c2ccc(N3CCC(OCc4c(-c5ccccc5C(F)(F)F)noc4C4CC4)CC3)cc2F)no1 [Example 24]", "recombinant GST-FXR fusion protein (Homo sapiens, UniProt Q96RI1)", 1.0),
    ("O=c1[nH]c(-c2ccc(N3C4CCC3CC(OCc3c(-c5ccccc5C(F)(F)F)noc3C3CC3)C4)cc2F)no1 (stereo not drawn) [Example 37]", "recombinant GST-FXR fusion protein (Homo sapiens, UniProt Q96RI1)", 1.0),
]
